- Test system: SEM cells
- protocol_description: cell viability relative to DMSO control; higher = less cytotoxic
- protocol_conditions: RPMI 5 mM glucose + 10% FBS; 48 h; 5.12 µM
value_type: cell viability (%)
Hi! Could you send only the number? It should be in %, unit omitted.

> print(dat)
                                smiles.repr  experimental.value
1  C=CC(=O)Nc1cccc(Sc2nc(Nc3ccc(N4CCN(C)CC4)cc3)ncc2Cl)c1                41.3
2  CC1(COc2ccc3c(c2)ncn3-c2ccc3cccc(N4CCC(N)CC4)c3n2)COC1                18.1
3  CCOC(=O)N1CCN(/[N+]([O-])=N/Oc2cc(O/N=[N+](\[O-])N3CCN(C(=O)OCC)CC3)c([N+](=O)[O-])cc2[N+](=O)[O-])CC1                 142

Request: In one line, give reported cell viability of the entry Cc1cn2cc(C(=O)N(C)CCO)cc(N[C@@H]3CCOc4cccc(C)c43)c2n1 .
Result: 87.2

Request: In one line, give reported cell viability of the entry C[S+](=O)([O-])Oc1ccc2c(NC(N)=O)c(C(=O)c3ccc(Cl)cc3Cl)oc2c1 .
Result: 103

###

- Tested on: NOMO1
- protocol_description: cell viability relative to DMSO control; higher = less cytotoxic
- protocol_conditions: RPMI 5 mM glucose + 10% FBS; 48 h; 5.12 µM
value_type: cell viability (%)
Hi! Could you send only the number? It should be in %, unit omitted.

Below, each entry is followed by its recorded cell viability result.
compound	cell viability, %
CO[C@@H](C(=O)N1Cc2[nH]nc(NC(=O)c3ccc(N4CCN(C)CC4)cc3)c2C1)c1ccccc1	55.8
Cc1cc(Nc2ncc3c(n2)N(C)C(=O)N(c2cc(NC(=O)c4cccc(C(F)(F)F)c4)ccc2C)C3)n(C)n1	43.8
C/C1=C2/[N]3[Co+]456([OH])<-[N]7=C1[C@@H](CCC(N)=O)C(C)(C)/C7=C/C1=[N]->4C(=C(/C)C4=[N]->5[C@@](C)([C@H]3[C@H](CC(N)=O)[C@@]2(C)CCC(=O)NC[C@@H](C)OP(=O)([O-])O[C@H]2[C@@H](O)[C@@H](n3c[n]->6c5cc(C)c(C)cc53)O[C@@H]2CO)[C@@](C)(CC(N)=O)[C@@H]4CCC(N)=O)/[C@@](C)(CC(N)=O)[C@@H]1CCC(N)=O	81.4

We now examine a further compound.
Request: // fetch cell viability; item: CO[C@H]1CCC(O[C@H]2C[C@H]([C@]3(C)CC[C@]4(C[C@H](O)[C@@H](C)[C@@H]([C@@H](C)/C=C(\C)C(=O)[C@H](C)C[C@H](C)C(=O)[O-])O4)O3)O[C@]3(O[C@@H]([C@H]4O[C@@](O)(CO)[C@H](C)C[C@@H]4C)C[C@@H]3C)[C@@H]2C)O[C@@H]1C (some centres undefined) ; system: NOMO1
Result: 111

###

- Tested on: SEM cells
- protocol_description: AUC of viability dose-response curve (% viability x log10 dose units); higher = less sensitive
- protocol_conditions: RPMI 5 mM glucose + 10% FBS; 48 h
Entries and their AUC of viability dose-response curve
# print the numeric value only

Below, each entry is followed by its recorded AUC of viability dose-response curve result.
> print(dat)
                                   compound  experimental.value
1     CCCCCNC(=N)N/N=C/c1c[nH]c2ccc(OC)cc12                 424
2  Nc1n[nH]c2nnc(-c3c(-c4ccccc4)nn4ccccc34)cc12                 449
3  CC(C)C1CCC(C(=O)N[C@H](Cc2ccccc2)C(=O)O)CC1 (stereo partly specified)                 401
4  C[S+](=O)([O-])Oc1ccc2c(NC(N)=O)c(C(=O)c3ccc(Cl)cc3Cl)oc2c1                 442
5    c1ccc(CNc2nc(NCc3ccccc3)c3ccccc3n2)cc1                 462
6  NCCCC(N)(C(=O)O)C(F)F (stereo unspecified)                 460

Request: In one line, give reported AUC of viability dose-response curve of the entry CCC(CCCC)COC(=O)C(\C#N)=C(\c1ccccc1)c2ccccc2 (stereo unspecified) .
Result: 425

Request: In one line, give reported AUC of viability dose-response curve of the entry CCCN[C@H]1CCc2nc(N)sc2C1 .
Result: 442

Request: In one line, give reported AUC of viability dose-response curve of the entry CC(=O)N(C)C1(c2ccccc2)CCN(CCC[C@]2(c3ccc(Cl)c(Cl)c3)CCCN(C(=O)c3ccccc3)C2)CC1 .
Result: 303

Request: In one line, give reported AUC of viability dose-response curve of the entry N#C/C(=C(/N)Sc1ccc(N)cc1)c1ccccc1C(F)(F)F .
Result: 424

Request: In one line, give reported AUC of viability dose-response curve of the entry CN(C)CCCC1(c2ccc(F)cc2)OCc2cc(C#N)ccc21 (stereo unspecified) .
Result: 426

###

- Tested on: SEM cells
- protocol_description: cell viability relative to DMSO control; higher = less cytotoxic
- protocol_conditions: HPLM + 10% dialyzed FBS; 48 h; 5.12 µM
So basically: is cell viability under 30%? Then t. Not under? Then f.

Answered examples (6):
> print(dat)
                                   compound  class.assignment
1  O=C(CN1C(=O)C2(CCCC2)NC[C@H]1c1cc(F)cc(F)c1)Nc1ccc2c(c1)C[C@@]1(C2)C(=O)Nc2ncccc21                 f
2  CC1(C)SCCN([S+](=O)([O-])c2ccc(OCC#CCO)cc2)[C@H]1C(=O)NO                 f
3  CC(=O)N(C)C1(c2ccccc2)CCN(CCC[C@]2(c3ccc(Cl)c(Cl)c3)CCCN(C(=O)c3ccccc3)C2)CC1                 t
4  OC[C@H]1O[C@H](C[C@@H]1O)N2/C=C(C(=O)NC2=O)/C(F)(F)F                 t
5  C[C@H](CCC(=O)O)[C@H]1CC[C@H]2[C@@H]3[C@H](O)C[C@@H]4C[C@H](O)CC[C@]4(C)[C@H]3CC[C@]12C                 f
6       NC1=NC(=O)N2CC12 (stereo not drawn)                 f

Request: Dear colleague, could you confirm whether cell viability of CN1CC[C@H]([C@@H](O)C1)C2=C(O)C=C(O)C3=C2O\C(=C/C3=O)C4=CC=CC=C4Cl falls below 30%? Thanks.
Result: t

Request: Dear colleague, could you confirm whether cell viability of Oc1cc(-c2nc(-c3ccccc3)[nH]c2-c2ccncc2)ccc1Cl falls below 30%? Thanks.
Result: f

###

- System: NOMO1
- protocol_description: AUC of viability dose-response curve (% viability x log10 dose units); higher = less sensitive
- protocol_conditions: HPLM + 10% dialyzed FBS; 48 h
Entries and their AUC of viability dose-response curve
# print the numeric value only

compound	target_system	AUC of viability dose-response curve
C[C@@H]1[C@H]\2[C@H](O)[C@H]3[C@H](N(C)C)\C(=C(C(N)=O)/C(=O)[C@@]3(O)\C(=C2C(=O)C4=C(O)C=CC=C14)O)O	NOMO1	470
CC[C@H]1OC(=O)[C@H](C)[C@@H](O[C@H]2C[C@@](C)(OC)[C@@H](O)[C@H](C)O2)[C@H](C)[C@@H](O[C@@H]2O[C@H](C)C[C@H](N(C)C)[C@H]2O)[C@](C)(OC)C[C@@H](C)C(=O)[C@H](C)[C@@H](O)[C@]1(C)O	NOMO1	405

Request: In one line, give reported AUC of viability dose-response curve of the entry CC(C)C1CCC(C(=O)N[C@H](Cc2ccccc2)C(=O)O)CC1 (stereo partly drawn) .
Result: 409

###

- Tested on: SEM cells
- protocol_description: cell viability relative to DMSO control; higher = less cytotoxic
- protocol_conditions: RPMI 5 mM glucose + 10% FBS; 48 h; 0.00234 µM
So basically: is cell viability under 90%? Then t. Not under? Then f.

> print(dat)
                                   compound  class.assignment
1  CC(C)(N)C(=O)N[C@H](COCc1ccccc1)C(=O)N1CCC2(CC1)CN([S+](C)(=O)[O-])c1ccccc12                 f

Request: Dear colleague, could you confirm whether cell viability of CCOC(=O)c1c(C)n(C)c2ccc(O)cc12 falls below 90%? Thanks.
Result: f

###

- Test system: NOMO1
- protocol_description: cell viability relative to DMSO control; higher = less cytotoxic
- protocol_conditions: RPMI 5 mM glucose + 10% FBS; 48 h; 5.12 µM
Entries and their cell viability
Hi! Could you send only the number? It should be in %, unit omitted.

> print(dat)
                                   molecule      value.type  experimental.value
1  COCCn1c2c([n+](Cc3cnccn3)c1C)C(=O)c1ccccc1C2=O  cell viability                6.62

We now examine a further molecule.
Request: In one line, give reported cell viability of the entry O=C(O)CCCCCC(=O)NN=C1CCCC1 .
Result: 116
